Please provide measured CHEAL rating for the entries that follow.
test system: CHEAL (Lambsquarters, Common); experiment: Preemergence herbicidal evaluation; type: in vivo, Chenopodium album; conditions: preemergence, 0.0156 kg/ha, rated 4-5 weeks after treatment, 0-9 scale
Numbers only.

Check out these entries, answers already filled in.
INSERT INTO measurements (compound, assay_value) VALUES
  ('COC(=O)CC1SC(=Nc2cc(-n3c(=O)cc(C(F)(F)F)n(C)c3=O)c(F)cc2Cl)N(C)C1=O (stereo not shown) [Compound 88]', 7.0),
  ('C=CCN1C(=O)C(CC(=O)NOC)SC1=Nc1cc(-n2c(=O)cc(C(F)(F)F)n(C)c2=O)c(F)cc1Cl (stereo not shown) [Compound 85]', 3.0),
  ('CCOC(=O)CN1C(=O)C(CC(=O)OCCF)SC1=Nc1cc(-n2c(=O)cc(C(F)(F)F)n(C)c2=O)c(F)cc1Cl (stereo not shown) [Compound 82]', 9.0);

Could you now look at the following compound, please?
Briefly, CHEAL rating measured for C=CCN1C(=O)C(CC(=O)OC(C)C(=O)OCC)SC1=Nc1cc(-n2c(=O)ccn(C)c2=O)c(F)cc1Cl (stereo not shown) [Compound 94] : 9.0

----------
tested on: ZEAMX (Corn, Field); experiment: Postemergence herbicidal evaluation; format: in vivo, Zea mays; details: postemergence, rate 0.0156 kg/ha
readout name: herbicidal rating ZEAMX
One number for each entry.

Check out these entries, answers already filled in.
INSERT INTO assay_data (compound, measured_on, assay_value) VALUES
  ('COc1ccc(CN2C(=O)CSC2=Nc2cc(-n3c(=O)cc(C(F)(F)F)n(C)c3=O)c(F)cc2Cl)c(OC)c1', 'ZEAMX (Corn, Field)', 4.5),
  ('C#CC(C)N1C(=O)CSC1=Nc1cc(-n2c(=O)cc(C(F)(F)F)n(C)c2=O)c(F)cc1Cl (centres unmarked)', 'ZEAMX (Corn, Field)', 4),
  ('COc1cccc(CN2C(=O)CSC2=Nc2cc(-n3c(=O)cc(C(F)(F)F)n(C)c3=O)c(F)cc2Cl)c1', 'ZEAMX (Corn, Field)', 4.0),
  ('COc1ccc(CN2C(=O)CSC2=Nc2cc(-n3c(=O)cc(C(F)(F)F)n(C)c3=O)c(F)cc2Cl)cc1OC', 'ZEAMX (Corn, Field)', 3.5);

Could you now look at the following compound, please?
Briefly, herbicidal rating ZEAMX measured for `Cc1cccc(CN2C(=O)CSC2=Nc2cc(-n3c(=O)cc(C(F)(F)F)n(C)c3=O)c(F)cc2Cl)c1` : 4.5

----------
Tested on: CASOB (Sicklepod)
Assay: Postemergence herbicidal evaluation
Type: in vivo, Cassia obtusifolia
Settings: postemergence, rate 0.0630 kg/ha
Method: In the tests, seedling plants are grown in jiffy flats for about two weeks. The test compounds are dispersed in 50/50 acetone/water mixtures containing 0.5% TWEEN®20, a polyoxyethylene sorbitan monolaurate surfactant of Atlas Chemical Industries, in sufficient quantities to provide the equivalent of about 0.0156 kg to 0.500 kg per hectare of active compound when applied to the plants through a spray nozzle operating at 40 psi for a predetermined time. […]
Please provide measured CASOB herbicidal rating for the entries that follow.
Answers are plain numbers.

INSERT INTO results (molecule, assay_value) VALUES
  ('Cn1c(C(F)(F)F)cc(=O)n(-c2cc(N=C3SCC(=O)N3C3CCOC3=O)c(Cl)cc2F)c1=O (centres unmarked)', 7.0),
  ('CCOC(=O)CN1C(=O)C(CC(=O)OCCF)SC1=Nc1cc(-n2c(=O)cc(C(F)(F)F)n(C)c2=O)c(F)cc1Cl (centres unmarked)', 9.0),
  ('CCOC(=O)CN1C(=O)C(=C2CCCC2)SC1=Nc1cc(-n2c(=O)cc(C(F)(F)F)n(C)c2=O)c(F)cc1Cl', 1.0),
  ('CCOC(=O)[C@H](C)N1C(=O)CSC1=Nc1cc(-n2c(=O)cc(C(F)(F)F)n(C)c2=O)c(F)cc1Cl', 5.0);

Could you now look at the following molecule, please?
Briefly, CASOB herbicidal rating measured for `CCOC(=O)CN1C(=O)C(=C(C)C)S/C1=N/c1cc(-n2c(=O)cc(C(F)(F)F)n(C)c2=O)c(F)cc1Cl` : 2.0

Taken from patent US20020137929A1.
